- run.description: Metabolic stability in human liver microsomes assessed as compound remaining after 60 mins
- Format: ADME, Microsome
- condition.notes: read-out: Stability
measurement.name: remaining at 1 h

{"columns": ["smiles.string", "measurement.name", "test.result"],
 "data": [
  ["COC[C@H](C)Oc1cc(CCc2c(F)cccc2F)cc(C(=O)Nc2ccc(C(=O)O)cn2)c1", "remaining at 1 h", "> 60%"]
]}

###

- run.description: Clearance in dog
- Format: ADME, organism-based, Canis lupus familiaris
- condition.notes: in vivo
measurement.name: clearance

{"columns": ["smiles.string", "test.result"],
 "data": [
  ["COC[C@H](C)Oc1cc(CCc2c(F)cccc2F)cc(C(=O)Nc2ccc(C(=O)O)cn2)c1", "7.17 mL/min/kg"]
]}
